# subjectOfTest: Serine/threonine-protein kinase pim-3 (Homo sapiens) (UniProt Q86V86)
# experimentSummary: Inhibition of recombinant full length human GST-tagged PIM3 expressed in insect cells at 500 nM by Z-LYTE assay relative to control
experimentalReadout: inhibition (%)

[I] CCC(=O)Nc1ccc(-c2c[nH]c3ncnc(N[C@H](C)c4ccccc4)c23)cc1
[II] CN(C)CCn1cc(-c2cccc(O)c2)c2c(N)ncnc21
[III] OCc1ccc(-c2cc3c(N[C@H](CO)c4ccccc4)ncnc3[nH]2)cc1
[IV] OC[C@@H](Nc1ncnc2sc(-c3ccc(O)cc3)cc12)c1ccccc1
[Q] # rank above entries by inhibition (max first, min last) Write out the labels following the order that was asked for.
[A] IV, III, I, II
(IV: 7%, III: 3%, I: -1%, II: -7%)

* * *

# subjectOfTest: Platelet-derived growth factor receptor beta (Homo sapiens)
# experimentSummary: Inhibition of recombinant human His-tagged PDGFRbeta cytoplasmic domain expressed in baculovirus expression system at 500 nM by Z-LYTE assay relative to control
experimentalReadout: inhibition (%)

// known answers, use as guide
{"columns": ["itemSmiles", "uom", "inhibition"],
 "data": [
  ["CN(C)CCn1cc(-c2cccc(O)c2)c2c(N)ncnc21", "%", 5],
  ["CCC(=O)Nc1ccc(-c2c[nH]c3ncnc(N[C@H](C)c4ccccc4)c23)cc1", "%", 5]
]}

[I] OCc1ccc(-c2cc3c(N[C@H](CO)c4ccccc4)ncnc3[nH]2)cc1
[II] OC[C@@H](Nc1ncnc2sc(-c3ccc(O)cc3)cc12)c1ccccc1
[Q] Compare inhibition: is it lower for I or for II ? Answer = label.
[A] II
(II: 1%, I: 7%)

* * *

# subjectOfTest: Phosphatidylinositol 4,5-bisphosphate 3-kinase catalytic subunit gamma isoform (Homo sapiens) (UniProt P48736)
# Sequence (P48736 whole entry, looked up, canonical isoform): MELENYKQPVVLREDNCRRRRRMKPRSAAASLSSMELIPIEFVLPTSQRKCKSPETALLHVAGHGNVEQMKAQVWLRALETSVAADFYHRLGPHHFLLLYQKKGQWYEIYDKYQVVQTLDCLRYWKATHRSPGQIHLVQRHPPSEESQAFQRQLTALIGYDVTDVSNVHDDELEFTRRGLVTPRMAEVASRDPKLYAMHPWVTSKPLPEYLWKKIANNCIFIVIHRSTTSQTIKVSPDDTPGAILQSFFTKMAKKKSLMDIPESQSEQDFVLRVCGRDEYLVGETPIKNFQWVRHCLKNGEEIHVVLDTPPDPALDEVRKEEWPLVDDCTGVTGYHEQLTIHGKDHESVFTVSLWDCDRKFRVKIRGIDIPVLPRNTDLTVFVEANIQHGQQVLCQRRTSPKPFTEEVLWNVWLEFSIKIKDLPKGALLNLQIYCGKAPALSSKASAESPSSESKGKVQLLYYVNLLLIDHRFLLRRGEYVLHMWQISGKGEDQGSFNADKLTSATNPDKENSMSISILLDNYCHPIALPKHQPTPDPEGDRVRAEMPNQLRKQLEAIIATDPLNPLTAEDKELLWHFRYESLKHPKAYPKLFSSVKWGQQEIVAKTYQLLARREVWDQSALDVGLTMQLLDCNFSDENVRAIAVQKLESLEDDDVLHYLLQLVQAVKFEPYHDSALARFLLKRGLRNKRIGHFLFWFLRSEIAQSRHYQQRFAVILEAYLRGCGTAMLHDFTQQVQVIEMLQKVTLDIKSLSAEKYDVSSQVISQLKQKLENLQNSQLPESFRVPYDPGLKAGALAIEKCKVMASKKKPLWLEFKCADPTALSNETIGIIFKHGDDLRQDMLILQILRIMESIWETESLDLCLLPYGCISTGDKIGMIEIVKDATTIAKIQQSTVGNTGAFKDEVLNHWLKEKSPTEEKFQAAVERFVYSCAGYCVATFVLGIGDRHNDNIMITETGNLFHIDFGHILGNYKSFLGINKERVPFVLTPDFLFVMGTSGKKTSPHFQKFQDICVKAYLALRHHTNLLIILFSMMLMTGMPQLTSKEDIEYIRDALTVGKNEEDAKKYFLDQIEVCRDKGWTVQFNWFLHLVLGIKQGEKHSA
# experimentSummary: Inhibition of recombinant full length human His-tagged PI3K p110ggamma at 500 nM by Z-LYTE assay relative to control
experimentalReadout: inhibition (%)

{"columns": ["itemSmiles", "uom", "inhibition"],
 "data": [
  ["CCC(=O)Nc1ccc(-c2c[nH]c3ncnc(N[C@H](C)c4ccccc4)c23)cc1", "%", 1],
  ["CN(C)CCn1cc(-c2cccc(O)c2)c2c(N)ncnc21", "%", 5]
]}

[a] OCc1ccc(-c2cc3c(N[C@H](CO)c4ccccc4)ncnc3[nH]2)cc1
[b] OC[C@@H](Nc1ncnc2sc(-c3ccc(O)cc3)cc12)c1ccccc1
[Q] Compare the recorded inhibition of a and b ; state which is larger. Answer = label.
[A] a
(a: 4%, b: -2%)

* * *

# subjectOfTest: PI3K p110 beta/p85 alpha (Homo sapiens) (UniProt P27986+P42338)
# Sequence (P27986 2-724 limits assumed): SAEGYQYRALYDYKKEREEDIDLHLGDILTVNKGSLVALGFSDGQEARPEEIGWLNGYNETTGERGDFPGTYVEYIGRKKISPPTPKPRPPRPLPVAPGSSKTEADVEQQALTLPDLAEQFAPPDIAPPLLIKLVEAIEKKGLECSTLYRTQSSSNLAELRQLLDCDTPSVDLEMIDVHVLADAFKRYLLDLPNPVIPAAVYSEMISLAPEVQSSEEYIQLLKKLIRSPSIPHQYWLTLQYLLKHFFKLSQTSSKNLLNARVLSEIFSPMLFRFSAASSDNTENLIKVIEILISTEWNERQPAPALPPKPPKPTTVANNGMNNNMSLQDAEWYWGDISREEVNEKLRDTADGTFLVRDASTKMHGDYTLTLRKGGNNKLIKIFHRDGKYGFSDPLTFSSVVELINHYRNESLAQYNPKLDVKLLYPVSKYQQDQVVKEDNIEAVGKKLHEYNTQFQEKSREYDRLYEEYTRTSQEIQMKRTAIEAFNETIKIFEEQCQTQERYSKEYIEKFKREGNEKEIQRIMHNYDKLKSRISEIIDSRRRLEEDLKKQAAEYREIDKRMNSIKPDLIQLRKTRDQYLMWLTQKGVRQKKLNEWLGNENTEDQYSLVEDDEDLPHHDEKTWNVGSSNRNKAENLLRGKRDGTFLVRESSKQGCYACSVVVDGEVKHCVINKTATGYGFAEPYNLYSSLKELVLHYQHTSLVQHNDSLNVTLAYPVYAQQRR
# Sequence (P42338 whole entry partner): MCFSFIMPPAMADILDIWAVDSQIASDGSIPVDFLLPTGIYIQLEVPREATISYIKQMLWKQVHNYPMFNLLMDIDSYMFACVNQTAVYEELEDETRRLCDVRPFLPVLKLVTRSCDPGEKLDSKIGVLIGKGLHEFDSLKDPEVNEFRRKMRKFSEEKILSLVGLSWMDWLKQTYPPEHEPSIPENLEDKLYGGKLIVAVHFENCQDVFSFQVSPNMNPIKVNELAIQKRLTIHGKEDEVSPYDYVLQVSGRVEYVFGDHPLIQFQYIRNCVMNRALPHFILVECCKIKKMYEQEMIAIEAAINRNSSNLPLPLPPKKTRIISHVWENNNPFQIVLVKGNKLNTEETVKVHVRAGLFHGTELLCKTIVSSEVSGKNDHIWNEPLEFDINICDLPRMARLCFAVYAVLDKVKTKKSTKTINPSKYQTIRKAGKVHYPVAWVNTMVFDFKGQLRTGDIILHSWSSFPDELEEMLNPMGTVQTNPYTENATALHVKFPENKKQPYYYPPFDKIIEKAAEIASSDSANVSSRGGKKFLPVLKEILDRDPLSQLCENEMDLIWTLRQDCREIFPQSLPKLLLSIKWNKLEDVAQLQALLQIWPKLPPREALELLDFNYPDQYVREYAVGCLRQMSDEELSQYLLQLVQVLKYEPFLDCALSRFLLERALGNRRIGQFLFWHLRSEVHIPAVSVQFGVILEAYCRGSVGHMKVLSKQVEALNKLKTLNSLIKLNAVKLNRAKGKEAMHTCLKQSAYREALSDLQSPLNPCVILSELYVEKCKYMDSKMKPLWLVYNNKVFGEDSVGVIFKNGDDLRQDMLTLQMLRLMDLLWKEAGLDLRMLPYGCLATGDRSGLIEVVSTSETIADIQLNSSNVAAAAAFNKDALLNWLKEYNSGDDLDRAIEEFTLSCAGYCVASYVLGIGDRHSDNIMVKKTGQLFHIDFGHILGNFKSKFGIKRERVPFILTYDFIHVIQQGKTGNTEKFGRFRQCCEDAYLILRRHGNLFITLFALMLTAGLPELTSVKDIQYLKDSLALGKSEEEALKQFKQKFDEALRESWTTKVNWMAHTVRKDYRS
# experimentSummary: Inhibition of PI3K p110beta/p85alpha (unknown origin) at 500 nM by Z-LYTE assay relative to control
# Format: protein-complex assay
experimentalReadout: inhibition (%)

// known answers, use as guide
{"columns": ["itemSmiles", "inhibition [%]"],
 "data": [
  ["OC[C@@H](Nc1ncnc2sc(-c3ccc(O)cc3)cc12)c1ccccc1", 1],
  ["CCC(=O)Nc1ccc(-c2c[nH]c3ncnc(N[C@H](C)c4ccccc4)c23)cc1", 11]
]}

[a] CN(C)CCn1cc(-c2cccc(O)c2)c2c(N)ncnc21
[b] OCc1ccc(-c2cc3c(N[C@H](CO)c4ccccc4)ncnc3[nH]2)cc1
[Q] Compare the recorded inhibition of a and b ; state which is larger. Answer = label.
[A] a
(a: 12%, b: 4%)

Ref: ChEMBL document CHEMBL4152312
